- assay.system: human EGFRvIII-hFc protein (human) (UniProt P00533)
- procedure.text: ELISA, EGFRvIII-hFc coated
pEC50: −log10 of the molar value.
// pEC50 lookup, one value per entry
assay.endpoint: pEC50

[
  {
    "binder": "Humanized antibody h75G7C6-2 (antibody, human IgG1, V domains shown) VH: EVQLVQSGAEVKKPGASVKVSCKASGYTFTDYNMDWVKQAPGQGLEWIGDINPNNADTIYNQKFKGRVTLTVDKSTSTVYMELSSLRSEDTAVYYCARGDYDGYYPVYYAMDYWGQGTTVTVSS VL: ENVLTQSPATLSLSPGERATLSCRASSSVSSSYLHWYQQKPGQAPRLLIFSTSNLAAGIPARFSGSGSGTDYTLTISSLEPEDFAVYYCQQYSGYPLTFGGGTKVEIK",
    "assay.endpoint": "pEC50",
    "observed.measurement": 9.42
  },
  {
    "binder": "Humanized antibody h75G7C6-3 (antibody, human IgG1, V domains shown) VH: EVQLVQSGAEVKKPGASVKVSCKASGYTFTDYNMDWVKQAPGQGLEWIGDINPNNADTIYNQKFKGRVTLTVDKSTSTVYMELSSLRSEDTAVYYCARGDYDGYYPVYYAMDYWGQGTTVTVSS VL: ENVLTQSPATLSLSPGERATLSCRASSSVSSSYLHWYQQKPGQSPRLLIFSTSNLAAGIPARFSGSGSGTDYTLTISSLEPEDFAVYYCQQYSGYPLTFGGGTKVEIK",
    "assay.endpoint": "pEC50",
    "observed.measurement": 9.29
  },
  {
    "binder": "Humanized antibody h75G7C6-8 (antibody, human IgG1, V domains shown) VH: QVQLVQSGAEVKKPGASVKVSCKASGYTFTDYNMDWVRQAPGQGLEWMGDINPNNADTIYNQKFKGRVTMTRDTSTSTVYMELSSLRSEDTAVYYCARGDYDGYYPVYYAMDYWGQGTTVTVSS VL: ENVLTQSPATLSLSPGERATLSCRASSSVSSSYLHWYQQKPGQSPRLLIFSTSNLAAGVPARFSGSGSGTDYTLTISSLEPEDFAVYYCQQYSGYPLTFGGGTKVEIK",
    "assay.endpoint": "pEC50",
    "observed.measurement": 8.70
  }
]
